# refractive index values compiled below
assay: refractive index (Na D-line) (dimensionless); settings: 298 K; 101.33 kPa; Liquid; Standard Abbe refractometry
A bare number is all that is needed in reply.

Recorded results for 2 compounds are shown here.
compound: CC(O)c1ccccc1 (centres undefined)
refractive index: 1.52467
//
compound: CCCCC(=O)O
refractive index: 1.40718

Enquiry: Can you look up the measured refractive index of `Clc1ccccc1` for me?
Return: 1.52165

Enquiry: Can you look up the measured refractive index of `c1ccc(COCc2ccccc2)cc1` for me?
Return: 1.56019

====

conditions: 298 K; 101.33 kPa; Liquid; Vibrating tube method
± gives the expanded uncertainty stated by the source.
quantity-measured: mass density

Recorded results for 3 compounds are shown here.
compound: CCCCC(=O)O
result: 935.04 ± 0.37 kg/m3

compound: Clc1ccccc1
result: 1101.08 ± 0.44 kg/m3

compound: c1ccc(COCc2ccccc2)cc1
result: 1039.32 ± 0.4 kg/m3

Enquiry: Can you look up the measured mass density of CC(O)c1ccccc1 (centres undefined) for me?
Return: 1006.48 ± 0.38 kg/m3
